target-system: Fyn SH2 variant V17 (T4N/A5S/K8L), His-tag protein (human)
experimental-details: ELISA
pEC50: −log10 of the molar value. Square brackets hold non-standard residues; d marks the D form. Ends that are not written are not given here. * marks the point of attachment. Biotin = O=C1N[C@H]2[C@H](CS[C@H]2CCCCC(=O)*)N1; pY = N[C@@H](Cc1ccc(OP(=O)(O)O)cc1)C(=O)O; Ahx = NCCCCCC(=O)O
property-label: pEC50

INSERT INTO results (binder, property_label, recorded_measurement) VALUES
  ('{Biotin-Ahx-Ahx}-EPQ[pY]EEIPIYL [biotin-ahx-ahx-EPQpYEEIPIYL]', 'pEC50', '> 6.70');
